// values below are reported pIC50
target: human platelet phospholipase A2 (Homo sapiens); construct: The enzyme was isolated from human platelets; test: PLA2 Inhibition Assay (14C-oleate labeled E. coli membrane substrate); details: human platelet PLA2, pH 7, 37° C., 7 min preincubation, 30 min incubation
Sequence (P14555 21-144): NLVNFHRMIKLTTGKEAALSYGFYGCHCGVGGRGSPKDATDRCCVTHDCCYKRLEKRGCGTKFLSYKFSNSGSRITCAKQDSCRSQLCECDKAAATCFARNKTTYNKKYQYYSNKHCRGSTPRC
Bear in mind: pIC50 is minus log10 of a mol/L concentration; give just that figure.

Solved cases below.
| compound | readoutValue |
| --- | --- |
| O=C1OC(O)CC1CCCCCCCc1ccccc1 (stereo not drawn) [Example 9] | 3.42 |
| CCCCCCCCCCCC1CC(O)OC1=O (stereo not drawn) [Example 5] | 4.77 |

// returns pIC50 for CCCCCCCCCCCCC1CC(O)OC1=O (stereo not drawn) [Example 7] with human platelet phospholipase A2 (Homo sapiens); value = 4.74

human platelet phospholipase A2 (Homo sapiens) assay, compound CCCCCCCCCCCCCCCCC1CC(O)OC1=O (stereo not drawn) [Example 13] , recorded pIC50 = 4.23

Value (pIC50, human platelet phospholipase A2 (Homo sapiens)) for record CCCCCCCCCCC1CC(O)OC1=O (stereo not drawn) [Example 3] = 3.28

Origin of values: patent US5202350A
